Tested on: HeLa
procedure.summary: Cytotoxicity against human HeLa cells assessed as decrease in cell viability after 48 hrs by MTT assay
Format: functional, cell-based
Recorded IC50 for the following compounds
Give the value in µM but do not write µM after it.

COc1cccc(-c2oc3cc(O)ccc3c2-c2ccc(O)cc2O)c1 | 29.9
CC[C@@]1(O)C(=O)OCc2c1cc1n(c2=O)Cc2cc3cc(O)ccc3nc2-1 [HYDROXYCAMPTOTHECIN] | 10
Oc1ccc(-c2c(-c3ccc4ccccc4c3)oc3cc(O)ccc23)c(O)c1 | 21.2
Cc1cccc(-c2oc3cc(O)ccc3c2-c2ccc(O)cc2O)c1 | 13.4
COc1ccc(-c2c(-c3ccccc3)oc3cc(OC)ccc23)c(O)c1 | 28.9

Prompt line: Item Oc1ccc(-c2c(-c3ccccc3)oc3cc(O)ccc23)c(O)c1 with HeLa - IC50?
Response line: 29.7

Prompt line: Item Oc1ccc(-c2oc3cc(O)ccc3c2-c2ccc(O)cc2O)cc1 with HeLa - IC50?
Response line: 32

Prompt line: Item Oc1ccc(-c2c(-c3ccc(Cl)cc3)oc3cc(O)ccc23)c(O)c1 with HeLa - IC50?
Response line: 32.7

Prompt line: Item Oc1ccc(-c2c(-c3ccc(Br)cc3)oc3cc(O)ccc23)c(O)c1 with HeLa - IC50?
Response line: 36.7

Prompt line: Item Oc1ccc(-c2c(-c3cccc(Br)c3)oc3cc(O)ccc23)c(O)c1 with HeLa - IC50?
Response line: 26.9

Prompt line: Item Cc1ccccc1-c1oc2cc(O)ccc2c1-c1ccc(O)cc1O with HeLa - IC50?
Response line: 47.5

Prompt line: Item COc1ccc(-c2oc3cc(O)ccc3c2-c2ccc(O)cc2O)cc1 with HeLa - IC50?
Response line: 13.7

====

System: HeLa
procedure.summary: Cytotoxicity against human HeLa cells assessed as decrease in cell viability after 48 hrs by MTT assay
Type: functional, cell-based
outcome.measure: IC50 (µM)
Give the value in µM but do not write µM after it.

Cc1ccc(-c2oc3cc(O)ccc3c2-c2ccc(O)cc2O)cc1 | 29.2
COc1cccc(-c2c(-c3ccccc3)oc3c(OC)cccc23)c1O | 57.8
Oc1ccc(-c2c(-c3ccc(F)cc3)oc3cc(O)ccc23)c(O)c1 | 28.3

Below: the item to evaluate.
Prompt line: Request the reported IC50 associated with Oc1ccc(-c2c(-c3cccnc3)oc3cc(O)ccc23)c(O)c1
Response line: 19.9
